system-tested: human RXFP4 (hRXFP4) (Homo sapiens, UniProt Q8TDU9)
Sequence (Q8TDU9 whole entry): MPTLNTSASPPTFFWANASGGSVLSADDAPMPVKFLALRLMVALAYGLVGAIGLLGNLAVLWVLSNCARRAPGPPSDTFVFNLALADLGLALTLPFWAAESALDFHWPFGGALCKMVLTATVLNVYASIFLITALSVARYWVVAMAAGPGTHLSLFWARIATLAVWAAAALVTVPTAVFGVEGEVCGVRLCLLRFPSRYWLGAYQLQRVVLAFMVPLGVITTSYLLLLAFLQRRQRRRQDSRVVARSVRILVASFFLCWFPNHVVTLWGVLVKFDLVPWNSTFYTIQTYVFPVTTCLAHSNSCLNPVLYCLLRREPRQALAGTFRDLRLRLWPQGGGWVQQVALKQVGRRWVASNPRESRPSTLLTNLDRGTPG
run-description: cAMP accumulation TR-FRET in hRXFP4-CHO cells
value-kind: EC50 (µM)
State the answer as a number, implicitly in µM.

Query: Which EC50 value belongs to CC(C)(CCc1ccc(NS(=O)(=O)c2ccccc2)cc1)NCC(O)COc1ccc(O)c(NS(C)(=O)=O)c1 (racemic) [WNN0109-C011] ?
Reply: 33.9

----------
Target sequence: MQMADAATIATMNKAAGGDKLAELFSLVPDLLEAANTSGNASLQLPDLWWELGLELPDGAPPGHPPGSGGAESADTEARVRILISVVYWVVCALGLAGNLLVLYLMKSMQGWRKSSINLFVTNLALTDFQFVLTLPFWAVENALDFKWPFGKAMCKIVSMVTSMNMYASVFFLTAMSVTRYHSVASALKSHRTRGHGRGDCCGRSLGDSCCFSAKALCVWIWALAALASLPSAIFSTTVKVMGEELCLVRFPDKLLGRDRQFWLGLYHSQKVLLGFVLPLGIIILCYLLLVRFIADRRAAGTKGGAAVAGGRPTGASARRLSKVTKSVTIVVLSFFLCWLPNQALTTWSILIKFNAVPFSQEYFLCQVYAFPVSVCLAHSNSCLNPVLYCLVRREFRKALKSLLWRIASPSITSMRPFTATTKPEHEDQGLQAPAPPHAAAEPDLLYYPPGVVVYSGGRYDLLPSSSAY
value-kind: pKi
Please report pKi as the negative decimal logarithm of the molar concentration, giving only the number.

Query: Which pKi value belongs to `CC(C)(CCc1ccc(NS(=O)(=O)c2ccccc2)cc1)NC[C@@H](O)COc1ccc(O)c(NS(C)(=O)=O)c1` ?
Reply: 4.50

----------
Below, each entry is listed alongside its reported activity at 10 µM.
system-tested: human RXFP3 (hRXFP3) (Homo sapiens, UniProt Q9NSD7)
Sequence (Q9NSD7 1-469): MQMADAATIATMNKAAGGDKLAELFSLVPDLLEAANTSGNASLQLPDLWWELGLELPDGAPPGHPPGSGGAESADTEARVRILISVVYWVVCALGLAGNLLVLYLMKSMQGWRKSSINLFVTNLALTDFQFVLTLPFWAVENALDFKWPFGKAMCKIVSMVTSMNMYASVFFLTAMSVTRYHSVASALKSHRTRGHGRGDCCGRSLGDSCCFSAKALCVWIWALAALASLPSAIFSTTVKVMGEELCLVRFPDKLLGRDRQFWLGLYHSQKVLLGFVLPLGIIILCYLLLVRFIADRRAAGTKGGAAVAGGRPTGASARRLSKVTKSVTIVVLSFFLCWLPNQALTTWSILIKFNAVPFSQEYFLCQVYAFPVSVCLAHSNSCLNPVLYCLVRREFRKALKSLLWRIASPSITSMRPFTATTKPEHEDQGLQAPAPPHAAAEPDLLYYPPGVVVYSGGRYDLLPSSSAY
run-description: cell-based
Design: HTS inhibition of forskolin-stimulated cAMP, TR-FRET; % activation relative to R3/I5
assay-conditions: hRXFP3-CHO; primary screen, single dose; read-out: % activation
Lab note: write values as number then unit, every time.

The examples below pair each entry with its known result.
compound=Cc1sc2[nH]c(=O)c(=O)[nH]c2c1C value_kind="activity at 10 µM" assay_value=54%
compound="O=C1NCCCC1C1=NC(CO)(CO)CO1 (stereo not drawn)" value_kind="activity at 10 µM" assay_value=53%

Continue with the compound presented below.
Query: Which activity at 10 µM value belongs to `O=C(O)Cn1c(=O)c(=O)[nH]c2c(Br)cc(Br)cc21` ?
Reply: 73%
